target or test system: AAK1 (Homo sapiens, UniProt Q2M2I8)
Sequence (Q2M2I8 27-365 limits assumed): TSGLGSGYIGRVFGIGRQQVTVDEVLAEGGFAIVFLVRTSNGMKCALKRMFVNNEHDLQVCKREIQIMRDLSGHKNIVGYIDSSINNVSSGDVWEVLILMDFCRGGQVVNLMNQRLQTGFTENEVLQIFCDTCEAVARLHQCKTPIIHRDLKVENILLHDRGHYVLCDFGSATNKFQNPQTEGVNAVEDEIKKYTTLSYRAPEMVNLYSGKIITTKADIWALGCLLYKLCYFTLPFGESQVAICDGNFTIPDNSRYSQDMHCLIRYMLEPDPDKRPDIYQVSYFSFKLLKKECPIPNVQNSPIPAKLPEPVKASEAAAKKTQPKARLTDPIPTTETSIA
assay info: biochemical
Design: kinase domain; Thermal shift assay (DSF, SYPRO Orange), 2 uM kinase domain, mean delta Tm of triplicates versus DMSO
condition set: read-out: AAK1
parameter measured: ΔTm at 12.5 µM (°C)

Examples from the recorded data:
compound	ΔTm at 12.5 µM [°C]
C[C@]12O[C@H](C[C@]1(O)CO)n1c3ccccc3c3c4c(c5c6ccccc6n2c5c31)CNC4=O	13.6
CN1CCC(CNc2ccc3ncc(-c4cccc(OC(F)(F)F)c4)n3n2)CC1	6.74
CC[C@H](Nc1ncnc2[nH]cnc12)c1nc2cccc(F)c2c(=O)n1-c1ccccc1	0.29

(P) C[C@@]1(C(=O)Nc2ccc(F)nc2)CCCN1c1nc(Nc2cc(C3CC3)n[nH]2)c2cccn2n1
(Q) C[C@H](Nc1ncnc2nc[nH]c12)c1cc2cccc(Cl)c2c(=O)n1-c1ccccc1
Task: Looking at recorded values for ΔTm at 12.5 µM, does P or Q come in lower? Write down the label attached to your selection.
Output: Q

Cited source: paper PMC4780864
